Data origin, for the record: ChEMBL document CHEMBL2057149

Each entry below carries its recorded APTT.
- Tested on: Plasma
- EXPERIMENT: Anticoagulant activity in pooled human plasma assessed as activated partial thromboplastin time at 0.1 mg/ml
- Type: ADME, cell-free
ENDPOINT: APTT

MOL	RESULT
CC(C)CCC[C@@H](C)[C@H]1CC[C@H]2[C@@H]3CC[C@H]4C[C@@H](O[C@H]5O[C@H](COS(=O)(=O)[O-])[C@@H](OS(=O)(=O)[O-])[C@H](OS(=O)(=O)[O-])[C@@H]5O[C@H]5O[C@H](COS(=O)(=O)[O-])[C@@H](OS(=O)(=O)[O-])[C@H](OS(=O)(=O)[O-])[C@@H]5OS(=O)(=O)[O-])CC[C@]4(C)[C@H]3CC[C@]12C.[Na+].[Na+].[Na+].[Na+].[Na+].[Na+].[Na+]	40.6 s
CC(C)CCC[C@@H](C)[C@H]1CC[C@H]2[C@@H]3CC[C@H]4C[C@@H](O[C@@H]5O[C@H](COS(=O)(=O)[O-])[C@@H](O[C@@H]6O[C@H](COS(=O)(=O)[O-])[C@@H](OS(=O)(=O)[O-])[C@H](OS(=O)(=O)[O-])[C@H]6OS(=O)(=O)[O-])[C@H](OS(=O)(=O)[O-])[C@H]5OS(=O)(=O)[O-])CC[C@]4(C)[C@H]3CC[C@]12C.[Na+].[Na+].[Na+].[Na+].[Na+].[Na+].[Na+]	38.8 s
CC(C)CCC[C@@H](C)[C@H]1CC[C@H]2[C@@H]3CC[C@H]4C[C@@H](O[C@H]5O[C@H](COS(=O)(=O)[O-])[C@@H](OS(=O)(=O)[O-])[C@H](OS(=O)(=O)[O-])[C@@H]5OS(=O)(=O)[O-])CC[C@]4(C)[C@H]3CC[C@]12C.[Na+].[Na+].[Na+].[Na+]	36.1 s

* * *

Notes on Kd obtained with Fibroblast growth factor 2 (Homo sapiens, UniProt P09038).
Sequence (P09038 143-288 limits assumed): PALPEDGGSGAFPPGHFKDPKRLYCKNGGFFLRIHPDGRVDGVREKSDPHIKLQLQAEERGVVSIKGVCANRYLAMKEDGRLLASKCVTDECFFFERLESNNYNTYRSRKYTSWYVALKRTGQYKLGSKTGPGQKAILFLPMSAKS

MOL	COMPARISON_SIGN	Kd / nM
CC(C)CCC[C@@H](C)[C@H]1CC[C@H]2[C@@H]3CC[C@H]4C[C@@H](O[C@@H]5O[C@H](COS(=O)(=O)[O-])[C@@H](O[C@H]6O[C@H](COS(=O)(=O)[O-])[C@@H](OS(=O)(=O)[O-])[C@H](OS(=O)(=O)[O-])[C@H]6OS(=O)(=O)[O-])[C@H](OS(=O)(=O)[O-])[C@H]5OS(=O)(=O)[O-])CC[C@]4(C)[C@H]3CC[C@]12C.[Na+].[Na+].[Na+].[Na+].[Na+].[Na+].[Na+]	=	2200
CC(C)CCC[C@@H](C)[C@H]1CC[C@H]2[C@@H]3CC[C@H]4C[C@@H](O[C@@H]5O[C@H](COS(=O)(=O)[O-])[C@@H](O[C@@H]6O[C@H](COS(=O)(=O)[O-])[C@@H](OS(=O)(=O)[O-])[C@H](OS(=O)(=O)[O-])[C@H]6OS(=O)(=O)[O-])[C@H](OS(=O)(=O)[O-])[C@H]5OS(=O)(=O)[O-])CC[C@]4(C)[C@H]3CC[C@]12C.[Na+].[Na+].[Na+].[Na+].[Na+].[Na+].[Na+]	=	2000
CC(C)CCC[C@@H](C)[C@H]1CC[C@H]2[C@@H]3CC[C@H]4C[C@@H](O[C@H]5O[C@H](COS(=O)(=O)[O-])[C@@H](OS(=O)(=O)[O-])[C@H](OS(=O)(=O)[O-])[C@@H]5OS(=O)(=O)[O-])CC[C@]4(C)[C@H]3CC[C@]12C.[Na+].[Na+].[Na+].[Na+]	>	3000
CC(C)CCC[C@@H](C)[C@H]1CC[C@H]2[C@@H]3CC[C@H]4C[C@@H](OCc5cn([C@@H]6O[C@H](COS(=O)(=O)[O-])[C@@H](O[C@@H]7O[C@H](COS(=O)(=O)[O-])[C@H](OS(=O)(=O)[O-])[C@H](OS(=O)(=O)[O-])[C@H]7OS(=O)(=O)[O-])[C@H](OS(=O)(=O)[O-])[C@H]6OS(=O)(=O)[O-])nn5)CC[C@]4(C)[C@H]3CC[C@]12C.[Na+].[Na+].[Na+].[Na+].[Na+].[Na+].[Na+]	=	1800

* * *

- Test system: HMVEC
- EXPERIMENT: Antiangiogenic activity in FGF1-stimulated HMVEC cells after 72 hrs by CellTiter assay
- Format: functional, cell-based
- CONDITION_DESCRIPTION: Homo sapiens
Calls of active or inactive are those of the source. The calls are words filed in the database; no cut-off is given here.

MOL	Activity
CC(C)CCC[C@@H](C)[C@H]1CC[C@H]2[C@@H]3CC[C@H]4C[C@@H](O[C@H]5O[C@H](COS(=O)(=O)[O-])[C@@H](OS(=O)(=O)[O-])[C@H](OS(=O)(=O)[O-])[C@@H]5O[C@H]5O[C@H](COS(=O)(=O)[O-])[C@@H](OS(=O)(=O)[O-])[C@H](OS(=O)(=O)[O-])[C@@H]5OS(=O)(=O)[O-])CC[C@]4(C)[C@H]3CC[C@]12C.[Na+].[Na+].[Na+].[Na+].[Na+].[Na+].[Na+]	Active
CC(C)CCC[C@@H](C)[C@H]1CC[C@H]2[C@@H]3CC[C@H]4C[C@@H](O[C@H]5O[C@H](COS(=O)(=O)[O-])[C@@H](OS(=O)(=O)[O-])[C@H](OS(=O)(=O)[O-])[C@@H]5OS(=O)(=O)[O-])CC[C@]4(C)[C@H]3CC[C@]12C.[Na+].[Na+].[Na+].[Na+]	Active

* * *

Notes on Kd obtained with Vascular endothelial growth factor A (Homo sapiens) (UniProt P15692).
ENDPOINT: Kd (µM)

MOL	QUANTITATIVE_READOUT
CC(C)CCC[C@@H](C)[C@H]1CC[C@H]2[C@@H]3CC[C@H]4C[C@@H](O[C@@H]5O[C@H](COS(=O)(=O)[O-])[C@@H](O[C@@H]6O[C@H](COS(=O)(=O)[O-])[C@@H](OS(=O)(=O)[O-])[C@H](OS(=O)(=O)[O-])[C@H]6OS(=O)(=O)[O-])[C@H](OS(=O)(=O)[O-])[C@H]5OS(=O)(=O)[O-])CC[C@]4(C)[C@H]3CC[C@]12C.[Na+].[Na+].[Na+].[Na+].[Na+].[Na+].[Na+]	1.35
CC(C)CCC[C@@H](C)[C@H]1CC[C@H]2[C@@H]3CC[C@H]4C[C@@H](OCc5cn([C@@H]6O[C@H](COS(=O)(=O)[O-])[C@@H](O[C@H]7O[C@H](COS(=O)(=O)[O-])[C@@H](OS(=O)(=O)[O-])[C@H](OS(=O)(=O)[O-])[C@H]7OS(=O)(=O)[O-])[C@H](OS(=O)(=O)[O-])[C@H]6OS(=O)(=O)[O-])nn5)CC[C@]4(C)[C@H]3CC[C@]12C.[Na+].[Na+].[Na+].[Na+].[Na+].[Na+].[Na+]	1.93
CC(C)CCC[C@@H](C)[C@H]1CC[C@H]2[C@@H]3CC[C@H]4C[C@@H](O[C@H]5O[C@H](COS(=O)(=O)[O-])[C@@H](OS(=O)(=O)[O-])[C@H](OS(=O)(=O)[O-])[C@@H]5O[C@H]5O[C@H](COS(=O)(=O)[O-])[C@@H](OS(=O)(=O)[O-])[C@H](OS(=O)(=O)[O-])[C@@H]5OS(=O)(=O)[O-])CC[C@]4(C)[C@H]3CC[C@]12C.[Na+].[Na+].[Na+].[Na+].[Na+].[Na+].[Na+]	1.3

* * *

- Test system: Plasma
- EXPERIMENT: Anticoagulant activity in pooled human plasma assessed as prolongation of the recalcification time at 0.1 mg/ml by Heptest assay
- Format: ADME, cell-free
Each entry below carries its recorded Time.

MOL	MEASURED_TARGET	Time (s)
CCCCCCCCCCCCCCCCCC(=O)NCCCO[C@@H]1O[C@H](COS(=O)(=O)[O-])[C@@H](O[C@H]2O[C@H](COS(=O)(=O)[O-])[C@@H](O[C@H]3O[C@H](COS(=O)(=O)[O-])[C@@H](OS(=O)(=O)[O-])[C@H](OS(=O)(=O)[O-])[C@H]3OS(=O)(=O)[O-])[C@H](OS(=O)(=O)[O-])[C@H]2OS(=O)(=O)[O-])[C@H](OS(=O)(=O)[O-])[C@H]1OS(=O)(=O)[O-].[Na+].[Na+].[Na+].[Na+].[Na+].[Na+].[Na+].[Na+].[Na+].[Na+]	Plasma	24.9
CC(C)CCC[C@@H](C)[C@H]1CC[C@H]2[C@@H]3CC[C@H]4C[C@@H](O[C@@H]5O[C@H](COS(=O)(=O)[O-])[C@@H](O[C@@H]6O[C@H](COS(=O)(=O)[O-])[C@@H](OS(=O)(=O)[O-])[C@H](OS(=O)(=O)[O-])[C@H]6OS(=O)(=O)[O-])[C@H](OS(=O)(=O)[O-])[C@H]5OS(=O)(=O)[O-])CC[C@]4(C)[C@H]3CC[C@]12C.[Na+].[Na+].[Na+].[Na+].[Na+].[Na+].[Na+]	Plasma	25.3
CC(C)CCC[C@@H](C)[C@H]1CC[C@H]2[C@@H]3CC[C@H]4C[C@@H](OCc5cn([C@@H]6O[C@H](COS(=O)(=O)[O-])[C@@H](O[C@@H]7O[C@H](COS(=O)(=O)[O-])[C@H](OS(=O)(=O)[O-])[C@H](OS(=O)(=O)[O-])[C@H]7OS(=O)(=O)[O-])[C@H](OS(=O)(=O)[O-])[C@H]6OS(=O)(=O)[O-])nn5)CC[C@]4(C)[C@H]3CC[C@]12C.[Na+].[Na+].[Na+].[Na+].[Na+].[Na+].[Na+]	Plasma	25.3
CC(C)CCC[C@@H](C)[C@H]1CC[C@H]2[C@@H]3CC[C@H]4C[C@@H](OCc5cn([C@@H]6O[C@H](COS(=O)(=O)[O-])[C@@H](O[C@H]7O[C@H](COS(=O)(=O)[O-])[C@@H](OS(=O)(=O)[O-])[C@H](OS(=O)(=O)[O-])[C@H]7OS(=O)(=O)[O-])[C@H](OS(=O)(=O)[O-])[C@H]6OS(=O)(=O)[O-])nn5)CC[C@]4(C)[C@H]3CC[C@]12C.[Na+].[Na+].[Na+].[Na+].[Na+].[Na+].[Na+]	Plasma	26.7
CC(C)CCC[C@@H](C)[C@H]1CC[C@H]2[C@@H]3CC[C@H]4C[C@@H](O[C@@H]5O[C@H](COS(=O)(=O)[O-])[C@@H](O[C@H]6O[C@H](COS(=O)(=O)[O-])[C@@H](OS(=O)(=O)[O-])[C@H](OS(=O)(=O)[O-])[C@H]6OS(=O)(=O)[O-])[C@H](OS(=O)(=O)[O-])[C@H]5OS(=O)(=O)[O-])CC[C@]4(C)[C@H]3CC[C@]12C.[Na+].[Na+].[Na+].[Na+].[Na+].[Na+].[Na+]	Plasma	23.9
CC(C)CCC[C@@H](C)[C@H]1CC[C@H]2[C@@H]3CC[C@H]4C[C@@H](O[C@H]5O[C@H](COS(=O)(=O)[O-])[C@@H](OS(=O)(=O)[O-])[C@H](OS(=O)(=O)[O-])[C@@H]5O[C@H]5O[C@H](COS(=O)(=O)[O-])[C@@H](OS(=O)(=O)[O-])[C@H](OS(=O)(=O)[O-])[C@@H]5OS(=O)(=O)[O-])CC[C@]4(C)[C@H]3CC[C@]12C.[Na+].[Na+].[Na+].[Na+].[Na+].[Na+].[Na+]	Plasma	25.5
CC(C)CCC[C@@H](C)[C@H]1CC[C@H]2[C@@H]3CC[C@H]4C[C@@H](O[C@H]5O[C@H](COS(=O)(=O)[O-])[C@@H](OS(=O)(=O)[O-])[C@H](OS(=O)(=O)[O-])[C@@H]5OS(=O)(=O)[O-])CC[C@]4(C)[C@H]3CC[C@]12C.[Na+].[Na+].[Na+].[Na+]	Plasma	23.9
